Cited source: PubChem BioAssay AID1918995

test system: 324938-238-R-J1-PDC complex spheroid growth, % test/control; assay: Anticancer human tumor 324938-238-R-J1-PDC patient-derived bladder carcinoma cell line growth inhibition [AhR]; settings: curve of first compound; second compound 0.316 µM;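 note: spheroids exposed to agents for seven days before viability read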
PROPERTY_NAME: IC50

Known results for compounds:
Cn1ncnc1C1c2n[nH]c(=O)c3cc(F)cc(c23)NC1c1ccc(F)cc1 (stereo not drawn) + Cc1ccccc1N=Nc1ccc(NC(=O)c2ccnn2C)c(C)c1: > 0.1 µM
O=C(c1cc(Cc2n[nH]c(=O)c3ccccc23)ccc1F)N1CCN(C(=O)C2CC2)CC1 + CC(CO)NC(=O)c1cc(-c2ccc(Cl)cc2)nn(-c2cnn(C)c2)c1=O: > 10 µM

INPUT: Request: IC50, test system 324938-238-R-J1-PDC complex spheroid growth, % test/control, entry COc1cc(C2c3cc4c(cc3C(OC3OC5COC(C)OC5C(O)C3O)C3COC(=O)C23)OCO4)cc(OC)c1O (stereo not drawn) + Cc1cncc(-c2nc(NCCc3c[nH]c4ccccc34)c3ncn(C(C)C)c3n2)c1;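 note: spheroids exposed to agents for seven days before viability read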
OUTPUT: > 10 µM
